B1: SPDEF (parent)
chain: FQELAGKELCAMSEEQFRQRSPLG

- Variants of: B1
- Test: protein stability index of a GFP-peptide fusion (GPS, HEK-293T) (PSI 1-6); higher = more stable;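 note: lentivirally expressed fusions sorted by FACS into six bins by GFP to DsRed ratio, PSI derived from sequencing read proportions per bin multiplied by bin number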
- Conditions: c terminus: a fixed tail appended
# key: entry, value: protein stability index
Enter a number only.

Previously resolved entries follow.
Q19A ... 2.67
L23E ... 3.48
R18N ... 2.96
Q16K ... 2.28
Q16I ... 2.49

// below: protein stability index requested for another variant
Determine from records and report protein stability index for S21G
2.52
